# credit: patent EP0866075B1

assay.system: enzyme I (Escherichia coli, UniProt P08839)
Construct: 3 µM each of purified HPr and enzyme I (Mao et al., 1995); made in house
assay.procedure: biochemical
Design: species or system E. coli
No end group written: not given here.

substance	IC50, µM
KKFHLRK [peptide 1, KKFHLRK]	150

* * *

assay.system: enzyme I (Escherichia coli)
Construct: 3 µM each of purified HPr and enzyme I (Mao et al., 1995); made in house
assay.procedure: biochemical
Set-up: species or system E. coli
conditions: peptides identified by phage display; 30 min at 37°C, HPr rate limiting; read-out: inhibition IC50
No end group written: not given here.
value.kind: IC50 (µM)

substance	u	reported
GLRFGKTRVHYLVLG [compound 14]	µM	25
RHITSL [compound 27, RHITSL]	µM	650
RHITLF [compound 28, RHITLF]	µM	1380
